Listed here are molecules together with their documented DC50.
molecular target: WIZ protein (HiBit-WIZ fusion protein) (Homo sapiens, UniProt O95785+Q96SW2); construct: expressed in transfected cells; assay: Quantification of WIZ protein levels in HiBit tag fusion protein assay (WIZ HiBit assay in 293T cells); assay type: cell-based; settings: WIZ HiBit assay in 293T cells; 10-point, 5-fold dose response, highest concentration 25 μM, about 18 hours; read-out: WIZ AC50
Sequence (O95785 whole entry, the tested form may be a part): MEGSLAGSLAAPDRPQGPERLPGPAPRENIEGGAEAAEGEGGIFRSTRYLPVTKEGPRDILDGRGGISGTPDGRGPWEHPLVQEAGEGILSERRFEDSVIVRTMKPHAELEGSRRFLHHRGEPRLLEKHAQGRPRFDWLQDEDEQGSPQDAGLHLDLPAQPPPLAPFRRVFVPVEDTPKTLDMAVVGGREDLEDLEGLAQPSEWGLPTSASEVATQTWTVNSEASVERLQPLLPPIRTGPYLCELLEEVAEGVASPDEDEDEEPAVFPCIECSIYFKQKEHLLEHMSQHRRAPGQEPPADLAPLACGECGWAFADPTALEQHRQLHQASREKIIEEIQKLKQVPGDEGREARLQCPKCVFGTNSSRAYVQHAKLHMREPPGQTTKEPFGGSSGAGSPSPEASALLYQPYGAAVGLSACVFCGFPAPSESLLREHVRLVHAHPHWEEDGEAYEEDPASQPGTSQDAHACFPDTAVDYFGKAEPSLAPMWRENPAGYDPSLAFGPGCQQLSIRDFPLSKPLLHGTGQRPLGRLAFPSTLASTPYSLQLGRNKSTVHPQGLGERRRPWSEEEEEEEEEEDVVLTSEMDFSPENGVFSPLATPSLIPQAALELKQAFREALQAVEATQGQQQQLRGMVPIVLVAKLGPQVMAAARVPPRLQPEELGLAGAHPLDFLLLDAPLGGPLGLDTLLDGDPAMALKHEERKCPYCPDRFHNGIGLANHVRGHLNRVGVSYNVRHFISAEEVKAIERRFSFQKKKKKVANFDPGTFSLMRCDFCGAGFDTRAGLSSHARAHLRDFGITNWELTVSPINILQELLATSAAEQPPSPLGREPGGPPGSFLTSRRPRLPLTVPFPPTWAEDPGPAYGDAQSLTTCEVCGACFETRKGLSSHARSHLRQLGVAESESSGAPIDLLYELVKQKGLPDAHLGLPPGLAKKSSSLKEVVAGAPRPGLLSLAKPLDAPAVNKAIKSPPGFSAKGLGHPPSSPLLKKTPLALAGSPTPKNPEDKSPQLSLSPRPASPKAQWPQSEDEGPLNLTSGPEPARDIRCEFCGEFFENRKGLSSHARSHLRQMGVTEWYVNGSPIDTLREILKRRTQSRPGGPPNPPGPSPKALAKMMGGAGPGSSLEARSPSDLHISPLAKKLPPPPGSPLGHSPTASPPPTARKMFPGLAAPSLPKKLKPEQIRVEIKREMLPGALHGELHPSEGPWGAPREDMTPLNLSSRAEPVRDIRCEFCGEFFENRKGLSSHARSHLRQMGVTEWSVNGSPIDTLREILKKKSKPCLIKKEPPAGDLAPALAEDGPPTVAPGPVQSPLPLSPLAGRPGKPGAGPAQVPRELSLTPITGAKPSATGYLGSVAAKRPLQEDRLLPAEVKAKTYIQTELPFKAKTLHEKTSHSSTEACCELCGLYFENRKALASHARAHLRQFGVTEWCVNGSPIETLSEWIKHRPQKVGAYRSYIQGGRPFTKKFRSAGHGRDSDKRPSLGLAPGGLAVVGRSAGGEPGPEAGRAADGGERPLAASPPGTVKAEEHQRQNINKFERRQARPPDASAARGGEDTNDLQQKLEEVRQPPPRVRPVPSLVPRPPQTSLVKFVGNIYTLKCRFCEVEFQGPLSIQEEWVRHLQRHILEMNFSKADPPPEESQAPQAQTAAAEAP
Sequence (Q96SW2 whole entry, the tested form may be a part): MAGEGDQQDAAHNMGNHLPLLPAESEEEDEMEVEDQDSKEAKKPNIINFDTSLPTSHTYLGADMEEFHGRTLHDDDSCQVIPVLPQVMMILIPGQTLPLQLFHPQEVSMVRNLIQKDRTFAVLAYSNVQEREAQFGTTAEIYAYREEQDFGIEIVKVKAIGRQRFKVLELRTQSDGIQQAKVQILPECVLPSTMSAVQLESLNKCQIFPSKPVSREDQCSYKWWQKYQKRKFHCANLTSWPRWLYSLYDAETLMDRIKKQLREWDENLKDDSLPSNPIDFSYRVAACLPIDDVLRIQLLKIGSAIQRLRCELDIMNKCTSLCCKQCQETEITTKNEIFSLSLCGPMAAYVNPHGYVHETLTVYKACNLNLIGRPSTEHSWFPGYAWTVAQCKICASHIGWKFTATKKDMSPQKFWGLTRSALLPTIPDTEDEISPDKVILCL
Sequence (Q16531 whole entry partner, the tested form may be a part): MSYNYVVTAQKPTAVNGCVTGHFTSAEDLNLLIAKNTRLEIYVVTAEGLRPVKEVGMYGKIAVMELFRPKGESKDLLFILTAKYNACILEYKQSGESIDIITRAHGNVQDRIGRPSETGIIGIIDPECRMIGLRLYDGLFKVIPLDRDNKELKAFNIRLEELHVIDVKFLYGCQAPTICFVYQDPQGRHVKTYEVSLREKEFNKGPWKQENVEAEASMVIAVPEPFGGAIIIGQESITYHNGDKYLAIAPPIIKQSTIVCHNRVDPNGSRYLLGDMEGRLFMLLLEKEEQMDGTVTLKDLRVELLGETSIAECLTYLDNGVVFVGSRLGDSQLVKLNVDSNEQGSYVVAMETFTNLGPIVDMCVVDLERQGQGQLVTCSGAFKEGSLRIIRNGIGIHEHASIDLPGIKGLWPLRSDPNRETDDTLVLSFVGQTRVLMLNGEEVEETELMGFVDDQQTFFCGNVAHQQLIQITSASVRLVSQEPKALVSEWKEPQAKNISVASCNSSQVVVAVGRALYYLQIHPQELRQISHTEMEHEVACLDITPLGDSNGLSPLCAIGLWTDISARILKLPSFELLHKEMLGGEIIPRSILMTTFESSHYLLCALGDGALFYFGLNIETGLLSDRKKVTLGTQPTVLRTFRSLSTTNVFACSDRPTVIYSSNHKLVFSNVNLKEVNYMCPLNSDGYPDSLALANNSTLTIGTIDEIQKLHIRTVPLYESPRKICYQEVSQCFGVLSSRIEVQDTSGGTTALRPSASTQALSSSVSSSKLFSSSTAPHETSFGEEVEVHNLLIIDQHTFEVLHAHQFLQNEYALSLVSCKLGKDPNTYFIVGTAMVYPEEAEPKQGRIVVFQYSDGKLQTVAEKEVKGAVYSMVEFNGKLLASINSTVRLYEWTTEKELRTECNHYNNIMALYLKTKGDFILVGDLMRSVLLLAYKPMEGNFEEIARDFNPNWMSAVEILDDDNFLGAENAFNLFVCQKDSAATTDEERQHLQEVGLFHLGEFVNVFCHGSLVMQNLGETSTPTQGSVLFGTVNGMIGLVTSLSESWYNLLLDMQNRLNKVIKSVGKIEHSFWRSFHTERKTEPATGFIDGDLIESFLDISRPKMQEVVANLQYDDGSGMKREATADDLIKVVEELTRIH
property.measured: DC50

> print(dat)
                                   molecule                        measurement.target  data.value
1  O=C1CCN(c2cnn3ccc(CC4CCN(C[C@H]5C[C@@H](F)[C@@H](F)C5)CC4)cc23)C(=O)N1  WIZ protein (HiBit-WIZ fusion protein) (Homo sapiens, UniProt O95785+Q96SW2)        2 nM
2  O=C1CCN(c2cnn3ccc(CC4CCCN(CC5CCCCC5)CC4)cc23)C(=O)N1 (stereo not shown)  WIZ protein (HiBit-WIZ fusion protein) (Homo sapiens, UniProt O95785+Q96SW2)       25 nM
3  O=C1CCN(c2cnn3ccc(CN4CCCNCC4)cc23)C(=O)N1  WIZ protein (HiBit-WIZ fusion protein) (Homo sapiens, UniProt O95785+Q96SW2)  > 25000 nM
4  C[C@H]1CN(CC2CCOCC2)CCN1Cc1ccn2ncc(N3CCC(=O)NC3=O)c2c1  WIZ protein (HiBit-WIZ fusion protein) (Homo sapiens, UniProt O95785+Q96SW2)      877 nM

Taken from patent US11787785B2.
